# melting temperature listing for each entry below
# System: HeLa Kyoto
# TEST_PROTOCOL: melting temperature (median over replicates), in situ; higher = more thermally stable
# MEASUREMENT_CONTEXT: cell cycle stage: mitosis
Use °C as the unit, but write only the number.

* MAPLDLDKYVEIARLCKYLPENDLKRLCDYVCDLLLEESNVQPVSTPVTVCGDIHGQFYDLCELFRTGGQVPDTNYIFMGDFVDRGYYSLETFTYLLALKAKWPDRITLLRGNHESRQITQVYGFYDECQTKYGNANAWRYCTKVFDMLTVAALIDEQILCVHGGLSPDIKTLDQIRTIERNQEIPHKGAFCDLVWSDPEDVDTWAISPRGAGWLFGAKVTNEFVHINNLKLICRAHQLVHEGYKFMFDEKLVTVWSAPNYCYRCGNIASIMVFKDVNTREPKLFRAVPDSERVIPPRTTTPYFL [PPP6C] | 54.1
* MFTSTGSSGLYKAPLSKSLLLVPSALSLLLALLLPHCQKLFVYDLHAVKNDFQIWRLICGRIICLDLKDTFCSSLLIYNFRIFERRYGSRKFASFLLGSWVLSALFDFLLIEAMQYFFGITAASNLPSGFLAPVFALFVPFYCSIPRVQVAQILGPLSITNKTLIYILGLQLFTSGSYIWIVAISGLMSGLCYDSKMFQVHQVLCIPSWMAKFFSWTLEPIFSSSEPTSEARIGMGATLDIQRQQRMELLDRQLMFSQFAQGRRQRQQQGGMINWNRLFPPLRQRQNVNYQGGRQSEPAAPPLEVSEEQVARLMEMGFSRGDALEALRASNNDLNVATNFLLQH [UBAC2] | 51.2
* MATGGYRTSSGLGGSTTDFLEEWKAKREKMRAKQNPPGPAPPGGGSSDAAGKPPAGALGTPAAAAANELNNNLPGGAPAAPAVPGPGGVNCAVGSAMLTRAAPGPRRSEDEPPAASASAAPPPQRDEEEPDGVPEKGKSSGPSARKGKGQIEKRKLREKRRSTGVVNIPAAECLDEYEDDEAGQKERKREDAITQQNTIQNEAVNLLDPGSSYLLQEPPRTVSGRYKSTTSVSEEDVSSRYSRTDRSGFPRYNRDANVSGTLVSSSTLEKKIEDLEKEVVRERQENLRLVRLMQDKEEMIGKLKEEIDLLNRDLDDIEDENEQLKQENKTLLKVVGQLTR [PAWR] | 55.7
* MGFLRRLIYRRRPMIYVESSEESSDEQPDEVESPTQSQDSTPAEEREDEGASAAQGQEPEADSQELVQPKTGCELGDGPDTKRVCLRNEEQMKLPAEGPEPEADSQEQVHPKTGCERGDGPDVQELGLPNPEEVKTPEEDEGQSQP [PAGE1] | 51.6

Now look at this entry.
Request: Tell me its melting temperature given MACAEFSFHVPSLEELAGVMQKGLKDNFADVQVSVVDCPDLTKEPFTFPVKGICGKTRIAEVGGVPYLLPLVNQKKVYDLNKIAKEIKLPGAFILGAGAGPFQTLGFNSEFMPVIQTESEHKPPVNGSYFAHVNPADGGCLLEKYSEKCHDFQCALLANLFASEGQPGKVIEVKAKRRTGPLNFVTCMRETLEKHYGNKPIGMGGTFIIQKGKVKSHIMPAEFSSCPLNSDEEVNKWLHFYEMKAPLVCLPVFVSRDPGFDLRLEHTHFFSRHGEGGHYHYDTTPDIVEYLGYFLPAEFLYRIDQPKETHSIGRD [C11ORF54] as the entry.
Result: 56.3

###

# Tested on: HeLa Kyoto
# TEST_PROTOCOL: solubility change mitosis vs G1/S (difference of NP-40 vs SDS log2 ratios) (log2 ratio difference); higher = more soluble in mitosis
# solubility change mitosis (log2) listing for each entry below
Write the value as a bare number.

• MSRYLLPLSALGTVAGAAVLLKDYVTGGACPSKATIPGKTVIVTGANTGIGKQTALELARRGGNIILACRDMEKCEAAAKDIRGETLNHHVNARHLDLASLKSIREFAAKIIEEEERVDILINNAGVMRCPHWTTEDGFEMQFGVNHLGHFLLTNLLLDKLKASAPSRIINLSSLAHVAGHIDFDDLNWQTRKYNTKAAYCQSKLAIVLFTKELSRRLQGSGVTVNALHPGVARTELGRHTGIHGSTFSSTTLGPIFWLLVKSPELAAQPSTYLAVAEELADVSGKYFDGLKQKAPAPEAEDEEVARRLWAESARLVGLEAPSVREQPLPR [RDH13] = 0.0735

Now look at this entry.
Request: Tell me its solubility change mitosis (log2) given MPMYQVKPYHGGGAPLRVELPTCMYRLPNVHGRSYGPAPGAGHVQEESNLSLQALESRQDDILKRLYELKAAVDGLSKMIQTPDADLDVTNIIQADEPTTLTTNALDLNSVLGKDYGALKDIVINANPASPPLSLLVLHRLLCEHFRVLSTVHTHSSVKSVPENLLKCFGEQNKKQPRQDYQLGFTLIWKNVPKTQMKFSIQTMCPIEGEGNIARFLFSLFGQKHNAVNATLIDSWVDIAIFQLKEGSSKEKAAVFRSMNSALGKSPWLAGNELTVADVVLWSVLQQIGGCSVTVPANVQRWMRSCENLAPFNTALKLLK [AIMP2] as the entry.
Result: 0.104

###

# Test system: HeLa Kyoto
# TEST_PROTOCOL: thermal stability score vs G1/S (z-score of summed log2 fold changes over temperatures); higher = more thermally stable than in G1/S
# MEASUREMENT_CONTEXT: cell cycle stage: early G1 (4.5 h after nocodazole release)
# thermal stability score listing for each entry below
Write the value as a bare number.

Guide cases for thermal stability score, answers given:
• MGEKSENCGVPEDLLNGLKVTDTQEAECAGPPVPDPKNQHSQSKLLRDDEAHLQEDQGEEECFHDCSASFEEEPGADKVENKSNEDVNSSELDEEYLIELEKNMSDEEKQKRREESTRLKEEGNEQFKKGDYIEAESSYSRALEMCPSCFQKERSILFSNRAAARMKQDKKEMAINDCSKAIQLNPSYIRAILRRAELYEKTDKLDEALEDYKSILEKDPSIHQAREACMRLPKQIEERNERLKEEMLGKLKDLGNLVLRPFGLSTENFQIKQDSSTGSYSINFVQNPNNNR [TTC1] = -3
• MANSGCKDVTGPDEESFLYFAYGSNLLTERIHLRNPSAAFFCVARLQDFKLDFGNSQGKTSQTWHGGIATIFQSPGDEVWGVVWKMNKSNLNSLDEQEGVKSGMYVVIEVKVATQEGKEITCRSYLMTNYESAPPSPQYKKIICMGAKENGLPLEYQEKLKAIEPNDYTGKVSEEIEDIIKKGETQTL [GGCT] = -0.47

Now look at this entry.
Request: Tell me its thermal stability score given MATRQRESSITSCCSTSSCDADDEGVRGTCEDASLCKRFAVSIGYWHDPYIQHFVRLSKERKAPEINRGYFARVHGVSQLIKAFLRKTECHCQIVNLGAGMDTTFWRLKDEDLLPSKYFEVDFPMIVTRKLHSIKCKPPLSSPILELHSEDTLQMDGHILDSKRYAVIGADLRDLSELEEKLKKCNMNTQLPTLLIAECVLVYMTPEQSANLLKWAANSFERAMFINYEQVNMGDRFGQIMIENLRRRQCDLAGVETCKSLESQKERLLSNGWETASAVDMMELYNRLPRAEVSRIESLEFLDEMELLEQLMRHYCLCWATKGGNELGLKEITY [LCMT1] as the entry.
Result: 0.211

###

# Tested on: HeLa Kyoto
# TEST_PROTOCOL: solubility change mitosis vs G1/S (difference of NP-40 vs SDS log2 ratios) (log2 ratio difference); higher = more soluble in mitosis
ASSAY_READOUT: solubility change mitosis (log2)
Write the value as a bare number.

Guide cases for solubility change mitosis (log2), answers given:
- MSAHNRGTELDLSWISKIQVNHPAVLRRAEQIQARRTVKKEWQAAWLLKAVTFIDLTTLSGDDTSSNIQRLCYKAKYPIREDLLKALNMHDKGITTAAVCVYPARVCDAVKALKAAGCNIPVASVAAGFPAGQTHLKTRLEEIRLAVEDGATEIDVVINRSLVLTGQWEALYDEIRQFRKACGEAHLKTILATGELGTLTNVYKASMIAMMAGSDFIKTSTGKETVNATFPVAIVMLRAIRDFFWKTGNKIGFKPAGGIRSAKDSLAWLSLVKEELGDEWLKPELFRIGASTLLSDIERQIYHHVTGRYAAYHDLPMS [DERA]: -0.0424
- MGLAGVCALRRSAGYILVGGAGGQSAAAAARRYSEGEWASGGVRSFSRAAAAMAPIKVGDAIPAVEVFEGEPGNKVNLAELFKGKKGVLFGVPGAFTPGCSKTHLPGFVEQAEALKAKGVQVVACLSVNDAFVTGEWGRAHKAEGKVRLLADPTGAFGKETDLLLDDSLVSIFGNRRLKRFSMVVQDGIVKALNVEPDGTGLTCSLAPNIISQL [PRDX5]: 0.124
- MAAVVVAAAGGAGPAVLQVAGLYRGLCAVRSRALGLGLVSPAQLRVFPVRPGSGRPEGGADSSGVGAEAELQANPFYDRYRDKIQLLRRSDPAAFESRLEKRSEFRKQPVGHSRQGDFIKCVEQKTDALGKQSVNRGFTKDKTLSSIFNIEMVKEKTAEEIKQIWQQYFAAKDTVYAVIPAEKFDLIWNRAQSCPTFLCALPRREGYEFFVGQWTGTELHFTALINIQTRGEAAASQLILYHYPELKEEKGIVLMTAEMDSTFLNVAEAQCIANQVQLFYATDRKETYGLVETFNLRPNEFKYMSVIAELEQSGLGAELKCAQNQNKT [ATPAF1]: -0.00439
- MSAPLDAALHALQEEQARLKMRLWDLQQLRKELGDSPKDKVPFSVPKIPLVFRGHTQQDPEVPKSLVSNLRIHCPLLAGSALITFDDPKVAEQVLQQKEHTINMEECRLRVQVQPLELPMVTTIQMSSQLSGRRVLVTGFPASLRLSEEELLDKLEIFFGKTRNGGGDVDVRELLPGSVMLGFARDGVAQRLCQIGQFTVPLGGQQVPLRVSPYVNGEIQKAEIRSQPVPRSVLVLNIPDILDGPELHDVLEIHFQKPTRGGGEVEALTVVPQGQQGLAVFTSESG [IFI35]: -0.0643

Now look at this entry.
Request: Look up HeLa Kyoto data: solubility change mitosis (log2) of MDFENLFSKPPNPALGKTATDSDERIDDEIDTEVEETQEEKIKLECEQIPKKFRHSAISPKSSLHRKSRSKDYDVYSDNDICSQESEDNFAKELQQYIQAREMANAAQPEESTKKEGVKDTPQAAKQKNKNLKAGHKNGKQKKMKRKWPGPGNKGSNALLRNSGSQEEDGKPKEKQQHLSQAFINQHTVERKGKQICKYFLERKCIKGDQCKFDHDAEIEKKKEMCKFYVQGYCTRGENCLYLHNEYPCKFYHTGTKCYQGEYCKFSHAPLTPETQELLAKVLDTEKKSCK [ZC3H8] , then report it.
Result: 0.444
